Assay: Cell viability assay (CellTiter-Glo) in Jurkat cells
Format: cell-based
Settings: human, Jurkat cells, concentration 3000 nmol/L; individual replicates; Supplementary Fig. 7g; read-out: Cell viability (%) relative to DMSO
Rule: viability at 72 h, 3000 nmol/L below 60% gives yes, anything at or above gives no.

{"compound": "O=C1Nc2ccc(Br)cc2C1=Cc1cc(Br)c(O)c(Br)c1", "label.class": "no"}
{"compound": "Cc1sc2c(c1C)C(c1ccc(Cl)cc1)=N[C@@H](CC(=O)NCCOCCOCCOCCOCCNC(=O)COc1c(Br)cc(/C=C3\\C(=O)Nc4ccc(Br)cc43)cc1Br)c1nnc(C)n1-2", "label.class": "yes"}
{"compound": "Cc1sc2c(c1C)C(c1ccc(Cl)cc1)=N[C@@H](CC(=O)OC(C)(C)C)c1nnc(C)n1-2 [JQ1, reference compound]", "label.class": "yes"}

###

Test: Cell viability assay (CellTiter-Glo) in Jurkat cells
Type: cell-based
Details: human, Jurkat cells, concentration 100 nmol/L; individual replicates; Supplementary Fig. 7g; read-out: Cell viability (%) relative to DMSO

{"compound": "Cc1sc2c(c1C)C(c1ccc(Cl)cc1)=NC(CC(=O)NCCOCCOCCOCCOc1c(Br)cc(CC3C(=O)Nc4ccc(Br)cc43)cc1Br)c1nnc(C)n1-2 (centres unmarked)", "viability at 72 h, 100 nmol/L [%]": 100}
{"compound": "Cc1sc2c(c1C)C(c1ccc(Cl)cc1)=NC(CC(=O)NCCOCCOCCOCCOCCNC(=O)COc1c(Br)cc(CC3C(=O)Nc4ccc(Br)cc43)cc1Br)c1nnc(C)n1-2 (centres unmarked)", "viability at 72 h, 100 nmol/L [%]": 99.6}
{"compound": "Cc1sc2c(c1C)C(c1ccc(Cl)cc1)=N[C@@H](CC(=O)NCCOCCOCCOCCOCCNC(=O)COc1c(Br)cc(/C=C3\\C(=O)Nc4ccc(Br)cc43)cc1Br)c1nnc(C)n1-2", "viability at 72 h, 100 nmol/L [%]": 101}
{"compound": "Cc1sc2c(c1C)C(c1ccc(Cl)cc1)=N[C@@H](CC(=O)OC(C)(C)C)c1nnc(C)n1-2 [JQ1, reference compound]", "viability at 72 h, 100 nmol/L [%]": 82.6}
{"compound": "O=C1Nc2ccc(Br)cc2C1=Cc1cc(Br)c(O)c(Br)c1", "viability at 72 h, 100 nmol/L [%]": 87.9}

###

Test: Cell viability assay (CellTiter-Glo) in Jurkat cells
Assay type: cell-based
Conditions: human, Jurkat cells, concentration 30 nmol/L; individual replicates; Supplementary Fig. 7g; read-out: Cell viability (%) relative to DMSO
measured.endpoint: viability at 72 h, 30 nmol/L (%)

{"compound": "Cc1sc2c(c1C)C(c1ccc(Cl)cc1)=N[C@@H](CC(=O)NCCOCCOCCOCCOCCNC(=O)COc1c(Br)cc(/C=C3\\C(=O)Nc4ccc(Br)cc43)cc1Br)c1nnc(C)n1-2", "measured.endpoint": "viability at 72 h, 30 nmol/L", "numeric.result": 92.8}
{"compound": "Cc1sc2c(c1C)C(c1ccc(Cl)cc1)=N[C@@H](CC(=O)OC(C)(C)C)c1nnc(C)n1-2 [JQ1, reference compound]", "measured.endpoint": "viability at 72 h, 30 nmol/L", "numeric.result": 90.8}
{"compound": "Cc1sc2c(c1C)C(c1ccc(Cl)cc1)=NC(CC(=O)NCCOCCOCCOCCOc1c(Br)cc(CC3C(=O)Nc4ccc(Br)cc43)cc1Br)c1nnc(C)n1-2 (stereo not drawn)", "measured.endpoint": "viability at 72 h, 30 nmol/L", "numeric.result": 101}

###

As shown below, each of these molecules has a reported viability at 72 h, 10 nmol/L value.
Assay: Cell viability assay (CellTiter-Glo) in Jurkat cells
Format: cell-based
Details: human, Jurkat cells, concentration 10 nmol/L; individual replicates; Supplementary Fig. 7g; read-out: Cell viability (%) relative to DMSO
measured.endpoint: viability at 72 h, 10 nmol/L (%)

{"molecule": "Cc1sc2c(c1C)C(c1ccc(Cl)cc1)=N[C@@H](CC(=O)NCCOCCOCCOCCOCCNC(=O)COc1c(Br)cc(/C=C3\\C(=O)Nc4ccc(Br)cc43)cc1Br)c1nnc(C)n1-2", "numeric.result": 89.8}
{"molecule": "Cc1sc2c(c1C)C(c1ccc(Cl)cc1)=NC(CC(=O)NCCOCCOCCOCCOc1c(Br)cc(CC3C(=O)Nc4ccc(Br)cc43)cc1Br)c1nnc(C)n1-2 (stereo not shown)", "numeric.result": 104}
{"molecule": "Cc1sc2c(c1C)C(c1ccc(Cl)cc1)=NC(CC(=O)NCCOCCOCCOCCOc1c(Br)cc(C=C3C(=O)Nc4ccc(Br)cc43)cc1Br)c1nnc(C)n1-2 (stereo not shown)", "numeric.result": 89.7}
{"molecule": "Cc1sc2c(c1C)C(c1ccc(Cl)cc1)=N[C@@H](CC(=O)OC(C)(C)C)c1nnc(C)n1-2 [JQ1, reference compound]", "numeric.result": 94.3}
{"molecule": "Cc1sc2c(c1C)C(c1ccc(Cl)cc1)=NC(CC(=O)NCCOCCOCCOCCOCCNC(=O)COc1c(Br)cc(CC3C(=O)Nc4ccc(Br)cc43)cc1Br)c1nnc(C)n1-2 (stereo not shown)", "numeric.result": 95.2}
{"molecule": "COCCCN(C(=O)CCl)C(C(=O)NCc1ccccc1)c1ccc(Cl)c(Cl)c1 (stereo not shown) [Compound 15, reference compound]", "numeric.result": 90.9}
{"molecule": "O=C1Nc2ccc(Br)cc2C1=Cc1cc(Br)c(O)c(Br)c1", "numeric.result": 95.2}

###

Assay: Cell viability assay (CellTiter-Glo) in Jurkat cells
Type: cell-based
Conditions: human, Jurkat cells; 72 h; 3000 nM; Fig. 4k; read-out: Relative cell viability (%)
As shown below, each of these compounds has a reported viability at 72 h, 3 µM value.
measured.endpoint: viability at 72 h, 3 µM (%)

{"compound": "Cc1sc2c(c1C)C(c1ccc(Cl)cc1)=N[C@@H](CC(=O)OC(C)(C)C)c1nnc(C)n1-2 [JQ1, reference compound]", "measured.endpoint": "viability at 72 h, 3 µM", "unit.string": "%", "numeric.result": 8.86}
{"compound": "Cc1sc2c(c1C)C(c1ccc(Cl)cc1)=NC(CC(=O)NCCOCCOCCOCCOCCNC(=O)COc1c(Br)cc(CC3C(=O)Nc4ccc(Br)cc43)cc1Br)c1nnc(C)n1-2 (stereo not shown) [Compound 16]", "measured.endpoint": "viability at 72 h, 3 µM", "unit.string": "%", "numeric.result": 16.6}
{"compound": "O=C1Nc2ccc(Br)cc2C1=Cc1cc(Br)c(O)c(Br)c1 [Compound 2]", "measured.endpoint": "viability at 72 h, 3 µM", "unit.string": "%", "numeric.result": 93.5}
{"compound": "Cc1sc2c(c1C)C(c1ccc(Cl)cc1)=NC(CC(=O)NCCOCCOCCOCCOc1c(Br)cc(CC3C(=O)Nc4ccc(Br)cc43)cc1Br)c1nnc(C)n1-2 (stereo not shown) [Compound 17]", "measured.endpoint": "viability at 72 h, 3 µM", "unit.string": "%", "numeric.result": 23}

###

As shown below, each of these compounds has a reported viability at 72 h, 300 nmol/L value.
Assay: Cell viability assay (CellTiter-Glo) in Jurkat cells
Assay type: cell-based
Settings: human, Jurkat cells, concentration 300 nmol/L; individual replicates; Supplementary Fig. 7g; read-out: Cell viability (%) relative to DMSO

{"compound": "Cc1sc2c(c1C)C(c1ccc(Cl)cc1)=NC(CC(=O)NCCOCCOCCOCCOCCNC(=O)COc1c(Br)cc(CC3C(=O)Nc4ccc(Br)cc43)cc1Br)c1nnc(C)n1-2 (stereo not shown) [Compound 16]", "unit.string": "%", "viability at 72 h, 300 nmol/L": 96.7}
{"compound": "O=C1Nc2ccc(Br)cc2C1=Cc1cc(Br)c(O)c(Br)c1 [Compound 2]", "unit.string": "%", "viability at 72 h, 300 nmol/L": 89.9}
{"compound": "Cc1sc2c(c1C)C(c1ccc(Cl)cc1)=NC(CC(=O)NCCOCCOCCOCCOc1c(Br)cc(CC3C(=O)Nc4ccc(Br)cc43)cc1Br)c1nnc(C)n1-2 (stereo not shown) [Compound 17]", "unit.string": "%", "viability at 72 h, 300 nmol/L": 92.8}
{"compound": "Cc1sc2c(c1C)C(c1ccc(Cl)cc1)=N[C@@H](CC(=O)OC(C)(C)C)c1nnc(C)n1-2 [JQ1, reference compound]", "unit.string": "%", "viability at 72 h, 300 nmol/L": 69}

###

Experiment: Cell viability assay (CellTiter-Glo) in Jurkat cells
Format: cell-based
Conditions: human, Jurkat cells, concentration 30000 nmol/L; individual replicates; Supplementary Fig. 7g; read-out: Cell viability (%) relative to DMSO

{"compound": "Cc1sc2c(c1C)C(c1ccc(Cl)cc1)=N[C@@H](CC(=O)OC(C)(C)C)c1nnc(C)n1-2 [JQ1, reference compound]", "viability at 72 h, 30000 nmol/L / %": 40.9}
{"compound": "O=C1Nc2ccc(Br)cc2C1=Cc1cc(Br)c(O)c(Br)c1", "viability at 72 h, 30000 nmol/L / %": 44.6}
